# Measured on: SUMO-25–109MDM2 (UniProt Q00987 25-109)
# Sequence (Q00987 25-109): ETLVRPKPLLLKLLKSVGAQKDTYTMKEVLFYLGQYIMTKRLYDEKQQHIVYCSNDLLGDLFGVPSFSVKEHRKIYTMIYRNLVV
# Assay name: BLI
Non-standard residues stand in square brackets, D forms with d. No end group written: not given here. Cba = N[C@@H](CC1CCC1)C(=O)O
Quantity name: Kd (nM)
Give bare numbers, in nM.

# query: Kd of entry LTFEHY[hexylalanine]AQ[Cba]TSK [compound 37] 0.5
